Sequence of the target: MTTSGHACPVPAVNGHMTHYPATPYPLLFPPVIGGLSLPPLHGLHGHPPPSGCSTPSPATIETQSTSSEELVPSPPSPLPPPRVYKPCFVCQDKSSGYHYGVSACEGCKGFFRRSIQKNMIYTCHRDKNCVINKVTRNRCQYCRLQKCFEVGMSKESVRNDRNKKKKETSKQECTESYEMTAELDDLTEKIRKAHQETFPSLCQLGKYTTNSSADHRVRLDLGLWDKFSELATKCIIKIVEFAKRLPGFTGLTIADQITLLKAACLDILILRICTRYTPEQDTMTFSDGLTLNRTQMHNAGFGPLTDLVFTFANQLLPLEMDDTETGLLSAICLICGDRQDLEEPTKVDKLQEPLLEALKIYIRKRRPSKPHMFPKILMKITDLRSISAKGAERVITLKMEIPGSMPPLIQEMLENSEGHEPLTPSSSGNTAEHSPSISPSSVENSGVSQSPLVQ
pKi: −log10 of the molar value.
endpoint: pKi

Q: May I ask what pKi has been recorded for CC(/C=C/C1(c2cc3c(cc2C)C(C)(C)CCC3(C)C)CC1)=C\C(=O)O ?
Ans: < 6.00

* * *

- test_system: Retinoic acid receptor gamma (Homo sapiens)
- Sequence (P13631 whole entry): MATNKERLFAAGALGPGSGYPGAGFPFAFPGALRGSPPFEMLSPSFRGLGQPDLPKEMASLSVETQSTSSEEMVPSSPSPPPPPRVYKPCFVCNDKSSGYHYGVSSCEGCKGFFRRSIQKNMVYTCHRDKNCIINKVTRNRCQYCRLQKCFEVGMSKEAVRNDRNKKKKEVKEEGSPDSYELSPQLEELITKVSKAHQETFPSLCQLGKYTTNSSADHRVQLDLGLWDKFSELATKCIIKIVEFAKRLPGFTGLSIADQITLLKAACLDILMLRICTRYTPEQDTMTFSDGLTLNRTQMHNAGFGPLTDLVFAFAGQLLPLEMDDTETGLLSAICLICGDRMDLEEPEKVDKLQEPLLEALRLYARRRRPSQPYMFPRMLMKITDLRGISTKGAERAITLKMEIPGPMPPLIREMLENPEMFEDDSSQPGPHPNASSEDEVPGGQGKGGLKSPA
pKi: −log10 of the molar value.
endpoint: pKi

Q: May I ask what pKi has been recorded for CC(/C=C/C1(c2cc3c(cc2C)C(C)(C)CCC3(C)C)CCCC1)=C\C(=O)O ?
Ans: < 6.00

* * *

- test_system: Retinoic acid receptor beta (Homo sapiens)
- Sequence (P10826 whole entry): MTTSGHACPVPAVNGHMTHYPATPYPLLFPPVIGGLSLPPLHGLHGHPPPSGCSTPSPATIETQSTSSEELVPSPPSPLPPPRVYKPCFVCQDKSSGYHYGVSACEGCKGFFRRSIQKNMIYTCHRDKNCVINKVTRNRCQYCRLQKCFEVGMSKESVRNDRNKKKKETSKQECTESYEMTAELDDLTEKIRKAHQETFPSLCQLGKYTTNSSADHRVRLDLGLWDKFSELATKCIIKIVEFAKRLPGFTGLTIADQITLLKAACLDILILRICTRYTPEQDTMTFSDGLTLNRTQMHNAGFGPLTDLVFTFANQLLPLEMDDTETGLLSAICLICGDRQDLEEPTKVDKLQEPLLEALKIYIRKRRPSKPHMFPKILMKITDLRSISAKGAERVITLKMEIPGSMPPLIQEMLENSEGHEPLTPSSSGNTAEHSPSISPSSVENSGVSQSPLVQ
- test: Transcriptional activation in CV-1 cells expressing retinoic acid receptor RAR beta
- Assay type: functional, cell-based
Record form. Attribute: pEC50. Fill in for each entry.
Reminder that pEC50 means the negative base-10 logarithm of the concentration expressed in mol/L.

Q: May I ask what pEC50 has been recorded for CC(/C=C/C1(c2cc3c(cc2C)C(C)(C)CCC3(C)C)CCCC1)=C\C(=O)O ?
Ans: 6.09

Q: Check CC(/C=C/C1(c2ccc3c(c2)C(C)(C)CCC3(C)C)CC1)=C\C(=O)O too.
Ans: 6.54

* * *

Sequence of the target: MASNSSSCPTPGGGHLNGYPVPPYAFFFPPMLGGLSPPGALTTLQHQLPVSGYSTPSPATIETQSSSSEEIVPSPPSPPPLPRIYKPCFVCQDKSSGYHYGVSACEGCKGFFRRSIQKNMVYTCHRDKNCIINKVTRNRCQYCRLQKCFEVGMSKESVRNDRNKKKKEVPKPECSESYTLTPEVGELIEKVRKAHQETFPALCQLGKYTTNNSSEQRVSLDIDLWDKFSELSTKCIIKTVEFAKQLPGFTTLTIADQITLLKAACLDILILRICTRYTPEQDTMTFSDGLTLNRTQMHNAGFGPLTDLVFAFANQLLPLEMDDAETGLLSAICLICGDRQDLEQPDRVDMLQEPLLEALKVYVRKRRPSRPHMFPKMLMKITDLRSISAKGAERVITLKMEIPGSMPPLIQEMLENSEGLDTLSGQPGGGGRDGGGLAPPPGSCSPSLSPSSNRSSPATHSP
endpoint: Ki
Quote the value and follow it with the unit of measurement.

Q: May I ask what Ki has been recorded for C=C(c1ccc(C(=O)O)cc1)c1ccc2c(c1)C(C)(C)CCC2(C)C ?
Ans: 944 nM

* * *

Record form. Attribute: Ki. Fill in for each entry.
- test_system: UniProtKB P48443
- Sequence (P48443 whole entry): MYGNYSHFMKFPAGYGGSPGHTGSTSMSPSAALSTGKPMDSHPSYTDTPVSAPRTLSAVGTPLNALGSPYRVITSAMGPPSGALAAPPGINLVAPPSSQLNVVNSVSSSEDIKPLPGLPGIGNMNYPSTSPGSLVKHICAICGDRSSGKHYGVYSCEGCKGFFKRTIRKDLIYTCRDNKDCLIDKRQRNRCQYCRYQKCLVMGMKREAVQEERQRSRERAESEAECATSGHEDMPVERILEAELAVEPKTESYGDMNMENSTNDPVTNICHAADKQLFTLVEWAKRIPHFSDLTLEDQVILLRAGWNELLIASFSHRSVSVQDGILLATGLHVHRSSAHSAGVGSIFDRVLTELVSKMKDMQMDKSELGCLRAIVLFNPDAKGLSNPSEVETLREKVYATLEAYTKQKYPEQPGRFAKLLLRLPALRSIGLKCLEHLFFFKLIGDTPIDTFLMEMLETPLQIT
I only need the number, in nM, no unit after it.

Q: May I ask what Ki has been recorded for CC(/C=C/C1(c2ccc3c(c2)C(C)(C)CCC3(C)C)CCCC1)=C\C(=O)O ?
Ans: 172

Q: Check CC(/C=C/C1(c2ccc3c(c2)C(C)(C)CCC3(C)C)CC1)=C\C(=O)O too.
Ans: 6

Q: Check C=C(c1ccc(C(=O)O)cc1)c1ccc2c(c1)C(C)(C)CCC2(C)C too.
Ans: 290
